Molecular target: human prostanoid EP4 receptor (Homo sapiens)
Construct: expressed in transfected cells
Sequence (P35408 whole entry): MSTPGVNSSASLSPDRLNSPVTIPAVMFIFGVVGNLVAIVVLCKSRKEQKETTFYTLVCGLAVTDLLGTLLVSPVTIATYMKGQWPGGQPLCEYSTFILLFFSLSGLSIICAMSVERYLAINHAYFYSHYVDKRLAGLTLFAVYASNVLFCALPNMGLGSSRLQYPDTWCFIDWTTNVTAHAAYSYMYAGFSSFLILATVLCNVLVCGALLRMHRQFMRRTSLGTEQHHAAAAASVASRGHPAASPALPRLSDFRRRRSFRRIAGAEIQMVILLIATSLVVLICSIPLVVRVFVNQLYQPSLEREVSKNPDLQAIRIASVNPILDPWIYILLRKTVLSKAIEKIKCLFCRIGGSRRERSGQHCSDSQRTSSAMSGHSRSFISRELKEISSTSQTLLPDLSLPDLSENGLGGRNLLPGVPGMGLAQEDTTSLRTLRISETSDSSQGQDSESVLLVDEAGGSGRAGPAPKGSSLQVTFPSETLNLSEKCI
Assay: FLIPR Ca2+ signaling PG antagonist assay, EP4 stable cell line
Assay type: cell-based
Conditions: antagonist Kb vs standard agonist PGE2; HEK-293 EBNA cells with chimeric Gqs
measured_property: Kb (nM)

[[record]]
smiles_repr = "Cc1cc(OCC(=O)O)nn1Cc1cc(Cl)ccc1OCC(C)C"
prefix_operator = "≥"
observed_measurement = 10000

[[record]]
smiles_repr = "CCC(CC)COc1ccc(Br)cc1Cn1nc(OCC(=O)O)cc1C"
prefix_operator = "="
observed_measurement = 130

[[record]]
smiles_repr = "Cc1cc(OCC(=O)O)nn1Cc1cc(Cl)ccc1OCc1ccc(Cl)cc1"
prefix_operator = "≥"
observed_measurement = 10000

[[record]]
smiles_repr = "CCC(CC)COc1ccc(Cl)cc1Cn1nc(OCC(=O)O)cc1C"
prefix_operator = "="
observed_measurement = 350


* * *

The following compounds are listed with their measured Kb values.
Biological target: human prostanoid IP receptor (Homo sapiens, UniProt P43119)
Construct: expressed in transfected cells
Sequence (P43119 whole entry): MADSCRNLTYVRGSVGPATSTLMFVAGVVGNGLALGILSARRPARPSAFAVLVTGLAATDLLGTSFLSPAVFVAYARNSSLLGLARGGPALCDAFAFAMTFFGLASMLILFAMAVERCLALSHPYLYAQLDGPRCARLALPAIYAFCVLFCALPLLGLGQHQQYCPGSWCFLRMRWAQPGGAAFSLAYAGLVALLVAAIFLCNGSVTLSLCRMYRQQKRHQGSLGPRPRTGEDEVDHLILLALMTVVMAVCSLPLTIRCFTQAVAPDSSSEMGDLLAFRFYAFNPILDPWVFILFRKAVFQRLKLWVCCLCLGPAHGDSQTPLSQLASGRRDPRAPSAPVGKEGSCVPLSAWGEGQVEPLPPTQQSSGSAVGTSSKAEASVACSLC
Experiment: FLIPR Ca2+ signaling PG antagonist assay, IP stable cell line
Assay type: cell-based
Details: antagonist Kb vs standard agonist Cicaprost; HEK-293 EBNA cells
measured_property: Kb (nM)

[[record]]
compound = "CCC(CC)COc1ccc(Br)cc1Cn1nc(OCC(=O)O)cc1C [Example 1]"
tested_target = "human prostanoid IP receptor (Homo sapiens, UniProt P43119)"
measured_property = "Kb"
reading_unit = "nM"
prefix_operator = "="
observed_measurement = 220

[[record]]
compound = "CCC(CC)COc1ccc(Cl)cc1Cn1nc(OCC(=O)O)cc1C [Example 2]"
tested_target = "human prostanoid IP receptor (Homo sapiens, UniProt P43119)"
measured_property = "Kb"
reading_unit = "nM"
prefix_operator = "="
observed_measurement = 600

[[record]]
compound = "Cc1cc(OCC(=O)O)nn1Cc1cc(Cl)ccc1OCc1ccc(Cl)cc1 [Example 3]"
tested_target = "human prostanoid IP receptor (Homo sapiens, UniProt P43119)"
measured_property = "Kb"
reading_unit = "nM"
prefix_operator = "="
observed_measurement = 500

[[record]]
compound = "Cc1cc(OCC(=O)O)nn1Cc1cc(Cl)ccc1OCC(C)C [Example 4]"
tested_target = "human prostanoid IP receptor (Homo sapiens, UniProt P43119)"
measured_property = "Kb"
reading_unit = "nM"
prefix_operator = "≥"
observed_measurement = 10000


* * *

The following compounds are listed with their measured Kb values.
Biological target: human prostanoid EP3 receptor (Homo sapiens, UniProt P43115)
Construct: expressed in transfected cells
Sequence (P43115 whole entry): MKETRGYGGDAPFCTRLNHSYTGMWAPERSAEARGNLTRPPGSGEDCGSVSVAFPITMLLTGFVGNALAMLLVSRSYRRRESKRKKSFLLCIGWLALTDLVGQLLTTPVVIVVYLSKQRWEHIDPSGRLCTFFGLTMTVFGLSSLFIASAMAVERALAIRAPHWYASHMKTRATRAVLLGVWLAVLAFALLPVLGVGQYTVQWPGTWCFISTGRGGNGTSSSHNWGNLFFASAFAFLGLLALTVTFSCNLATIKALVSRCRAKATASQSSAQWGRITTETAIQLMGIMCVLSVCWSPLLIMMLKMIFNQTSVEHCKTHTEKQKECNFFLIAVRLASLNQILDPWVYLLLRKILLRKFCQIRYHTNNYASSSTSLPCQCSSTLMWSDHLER
Assay: FLIPR Ca2+ signaling PG antagonist assay, EP3 stable cell line
Format: cell-based
Conditions: antagonist Kb vs standard agonist PGE2; HEK-293 EBNA cells with chimeric Gqi
measured_property: Kb

[[record]]
smiles_repr = "Cc1cc(OCC(=O)O)nn1Cc1cc(Cl)ccc1OCc1ccc(Cl)cc1"
tested_target = "human prostanoid EP3 receptor (Homo sapiens, UniProt P43115)"
measured_property = "Kb"
observed_measurement = "3.7 µM"

[[record]]
smiles_repr = "Cc1cc(OCC(=O)O)nn1Cc1cc(Cl)ccc1OCC(C)C"
tested_target = "human prostanoid EP3 receptor (Homo sapiens, UniProt P43115)"
measured_property = "Kb"
observed_measurement = "≥ 10 µM"

[[record]]
smiles_repr = "CCC(CC)COc1ccc(Br)cc1Cn1nc(OCC(=O)O)cc1C"
tested_target = "human prostanoid EP3 receptor (Homo sapiens, UniProt P43115)"
measured_property = "Kb"
observed_measurement = "≥ 10 µM"

[[record]]
smiles_repr = "CCC(CC)COc1ccc(Cl)cc1Cn1nc(OCC(=O)O)cc1C"
tested_target = "human prostanoid EP3 receptor (Homo sapiens, UniProt P43115)"
measured_property = "Kb"
observed_measurement = "≥ 10 µM"

